Values were extracted from the RNAGym collection of RNA variant scans (doi:10.7554/elife.80360).

B1: Hairpin Ribozyme (parent)
chain: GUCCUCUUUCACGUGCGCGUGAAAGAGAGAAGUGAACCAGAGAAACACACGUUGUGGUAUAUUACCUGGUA

- Variants of: B1
- method: self-cleavage, relative activity (ratio to wild type); higher = more cleavage; co-transcriptional
property: self-cleavage
# print the numeric value only

QUERY: Give the measured self-cleavage for G19U A61G
RESULT: 0.231

QUERY: Please report the measured self-cleavage for G29U G57U
RESULT: 0.149

QUERY: Specify reported self-cleavage for the variant shown: U7A G27U
RESULT: 0.251

QUERY: Please report self-cleavage for the following variant: A39C U70C
RESULT: 0.247

QUERY: Please report self-cleavage for the following variant: U5C A24U
RESULT: 0.229

QUERY: Provide one value: measured self-cleavage of U58G U67G
RESULT: 0.173

QUERY: Dear colleague, please send me the reported self-cleavage for C18A A26C when you can.
RESULT: 0.527

QUERY: Retrieve self-cleavage measured for G34U A49G and print it.
RESULT: 1.49

QUERY: Identify measured self-cleavage associated with G51U U60C
RESULT: 1.49

QUERY: Report measured self-cleavage; entry is A49C A59G
RESULT: 0.167

QUERY: Please indicate self-cleavage recorded for C38U U52G
RESULT: 0.261

QUERY: Entry C48A C50A needs its self-cleavage filled in; supply it.
RESULT: 0.188

QUERY: Give self-cleavage for the following variant: U8C G34U
RESULT: 1.32

QUERY: Complete the entry with self-cleavage for A36U U53G
RESULT: 0.224

QUERY: Identify measured self-cleavage associated with A36C G56C
RESULT: 0.186

QUERY: Report measured self-cleavage; entry is U20C U70C
RESULT: 0.945

QUERY: Check the records and state self-cleavage for U33C G56U
RESULT: 0.26

QUERY: Consider the variant U20C A64G and give its recorded self-cleavage.
RESULT: 0.558

QUERY: Supply reported self-cleavage belonging to this variant: U5A U53G
RESULT: 0.278

QUERY: Return reported self-cleavage. Input variant: A30U A36G
RESULT: 0.248

QUERY: Return reported self-cleavage. Input variant: G42C U63A
RESULT: 0.18

QUERY: Item A49G A71C : provide self-cleavage
RESULT: 1.18

QUERY: Give self-cleavage for C16A A22G
RESULT: 0.617

QUERY: Please give measured self-cleavage of the following entry: U20C A61U
RESULT: 0.21

QUERY: Specify reported self-cleavage for the variant shown: U5A G42U
RESULT: 0.275

QUERY: Annotate the variant A45C U55A with its measured self-cleavage.
RESULT: 0.192

QUERY: Read the entry U5C G56C and write its reported self-cleavage.
RESULT: 0.159

QUERY: Report self-cleavage for C4G A45C
RESULT: 0.0824

QUERY: Give self-cleavage for G13C G32U
RESULT: 0.027

QUERY: Output measured self-cleavage for this item: G40U G42C
RESULT: 0.0925

QUERY: Consider the variant G56A A59G and give its recorded self-cleavage.
RESULT: 0.167

QUERY: Specify self-cleavage for G19C C50G and stop.
RESULT: 0.196

QUERY: Indicate the recorded self-cleavage value for this variant: U5A A23G
RESULT: 0.377

QUERY: State its self-cleavage for this variant: C46A A49U
RESULT: 0.149

QUERY: Output self-cleavage of C16A A23U
RESULT: 0.727

QUERY: Please indicate self-cleavage recorded for G17C U55C
RESULT: 0.216

QUERY: Please report self-cleavage for the following variant: U2C A64C
RESULT: 0.0771

QUERY: # return recorded self-cleavage for entry A61U C65A
RESULT: 0.107

QUERY: Please supply the value of reported self-cleavage for the item G40U A49U
RESULT: 0.0847

QUERY: Provide only the value of recorded self-cleavage for G29U U52A
RESULT: 0.124

QUERY: Using the record for G21U C66G , state its measured self-cleavage.
RESULT: 0.123

QUERY: Could you please provide reported self-cleavage for C48U A59C ? Thanks!
RESULT: 0.222

QUERY: Give the reported value of self-cleavage for this record: G13U U60G
RESULT: 0.404

QUERY: Return value of self-cleavage for input C4G A43G , no commentary.
RESULT: 0.121

QUERY: Give me measured self-cleavage, please, for this variant: A59U U60G
RESULT: 0.172

QUERY: Input A35U C37U , output reported self-cleavage.
RESULT: 0.457

QUERY: Input C16A A35U , output reported self-cleavage.
RESULT: 0.789

QUERY: Output measured self-cleavage for this item: G17C C65U
RESULT: 0.24

QUERY: Give reported self-cleavage value for A43C A49C
RESULT: 0.199

QUERY: Give a short answer stating reported self-cleavage for G34A G56A .
RESULT: 0.252

QUERY: Please report self-cleavage for the following variant: C46U G54C
RESULT: 0.149

QUERY: Complete the entry with self-cleavage for G40U G57A
RESULT: 0.128

QUERY: Fill in reported self-cleavage for this entry: C4U G42C
RESULT: 0.253

QUERY: For the variant G32U C46U , give its reported self-cleavage.
RESULT: 0.276

QUERY: Annotate the variant A35C A39G with its measured self-cleavage.
RESULT: 0.591

QUERY: Note self-cleavage for the variant shown: C48U A64C
RESULT: 0.255

QUERY: Report self-cleavage for C6A G54U
RESULT: 0.379

QUERY: Provide measured self-cleavage value, entry: U33A G69U
RESULT: 0.134

QUERY: Consider the variant U63G U67G . State its measured self-cleavage.
RESULT: 0.134

QUERY: Answer with reported self-cleavage of C38A C48A
RESULT: 0.14

QUERY: Name the recorded self-cleavage of the variant listed here: G21A G27A
RESULT: 0.346

QUERY: Read the entry G19U A47G and write its reported self-cleavage.
RESULT: 0.24

QUERY: Output measured self-cleavage for this item: G15A U62C
RESULT: 0.214

QUERY: Please list self-cleavage recorded for the variant G1U G34A
RESULT: 0.143

QUERY: Tell me measured self-cleavage for G40C A49C please.
RESULT: 0.0764

QUERY: Kindly indicate its recorded self-cleavage. Item: U5A A22U
RESULT: 0.274

QUERY: Please look at this variant and report its self-cleavage: U33A A41U
RESULT: 0.111

QUERY: Give self-cleavage for C48A C66G
RESULT: 0.245

QUERY: Hello, please tell me recorded self-cleavage for this one: U7G G32A
RESULT: 0.173

QUERY: Tell us which self-cleavage value is on record for A22C C50A
RESULT: 0.22

QUERY: Tell us which self-cleavage value is on record for G19C U20A
RESULT: 0.965

QUERY: Indicate its recorded self-cleavage; the variant in question is C37G G68U
RESULT: 0.189

QUERY: Identify measured self-cleavage associated with G40C A49U
RESULT: 0.169

QUERY: Please supply the value of reported self-cleavage for the item G40C A71G
RESULT: 0.165

QUERY: Hello, please tell me recorded self-cleavage for this one: U7A A31C
RESULT: 0.0614

QUERY: Read off the recorded self-cleavage for C4G G15A
RESULT: 0.216

QUERY: Indicate the recorded self-cleavage value for this variant: U8C A31C
RESULT: 0.0859

QUERY: Determine its reported self-cleavage: U53C C66G
RESULT: 0.328

QUERY: Provide self-cleavage value for the following variant: G21C U53G
RESULT: 0.58

QUERY: Identify measured self-cleavage corresponding to G54A G57C
RESULT: 0.149

QUERY: Return reported self-cleavage. Input variant: A44U U62G
RESULT: 0.0672

QUERY: State, in one line, measured self-cleavage of A44G C48U
RESULT: 0.0899

QUERY: Recall and state the measured self-cleavage for G15C C46G .
RESULT: 0.0585

QUERY: Output self-cleavage of A49G A61G
RESULT: 0.211

QUERY: Give recorded self-cleavage. A43C U62G
RESULT: 0.257

QUERY: Supply self-cleavage value. Item: G19A G40C
RESULT: 0.0669

QUERY: Tell me measured self-cleavage for A47G G68U please.
RESULT: 0.104

QUERY: Note self-cleavage for the variant shown: U5A G34A
RESULT: 0.435

QUERY: Tell me its self-cleavage given U14C U52G as the entry.
RESULT: 0.512

QUERY: Query self-cleavage for C16U A31G
RESULT: 0.742

QUERY: Output measured self-cleavage for this item: A35U U70A
RESULT: 0.703
